Field: dTm. Provide a value for each of the compounds that follow.
Target: ~100 representative kinases (Homo sapiens)
Construct: Recombinant protein kinase domains with a concentration of 2 μM
Assay: DSF 100 kinase selectivity screen;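 also: compound tested at 20 µM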
Type: binding
Settings: Protein SRPK3; DSF; average of three replicates
State the result as a value with its unit after it.

Look at this compound and give its reported dTm. COc1cc(NC(=O)C2(C(=O)Nc3cccc(-c4c[nH]c5ncnc(N6CCOCC6)c45)c3)CC2)ccc1F
6.98 K

Continue with O=C(Nc1ccccc1)C1(C(=O)Nc2cccc(-c3c[nH]c4ncnc(N5CCOCC5)c34)c2)CC1
4.78 K

Cc1cc(F)ccc1NC(=O)C1(C(=O)Nc2cccc(-c3c[nH]c4ncnc(N5CCOCC5)c34)c2)CC1 ?
1.90 K

Same question for CC(C)(C)c1cccc(NC(=O)C2(C(=O)Nc3cccc(-c4c[nH]c5ncnc(N6CCOCC6)c45)c3)CC2)c1 please.
4.39 K

O=C(Nc1ccc(F)cc1)C1(C(=O)Nc2cccc(-c3c[nH]c4ncnc(N5CCOCC5)c34)c2)CC1 ?
6.73 K

For O=C(Nc1cccc(-c2c[nH]c3ncnc(N4CCOCC4)c23)c1)C1(C(=O)Nc2ccc(F)c(Br)c2)CC1 then?
6.39 K

Then this compound: O=C(Nc1cccc(-c2c[nH]c3ncnc(N4CCOCC4)c23)c1)C1(C(=O)Nc2ccc(F)c(Br)c2F)CC1
2.55 K

====

Molecular target: ~100 representative kinases (Homo sapiens, UniProt Q12866)
Construct: Recombinant protein kinase domains with a concentration of 2 μM
Sequence (Q12866 21-999): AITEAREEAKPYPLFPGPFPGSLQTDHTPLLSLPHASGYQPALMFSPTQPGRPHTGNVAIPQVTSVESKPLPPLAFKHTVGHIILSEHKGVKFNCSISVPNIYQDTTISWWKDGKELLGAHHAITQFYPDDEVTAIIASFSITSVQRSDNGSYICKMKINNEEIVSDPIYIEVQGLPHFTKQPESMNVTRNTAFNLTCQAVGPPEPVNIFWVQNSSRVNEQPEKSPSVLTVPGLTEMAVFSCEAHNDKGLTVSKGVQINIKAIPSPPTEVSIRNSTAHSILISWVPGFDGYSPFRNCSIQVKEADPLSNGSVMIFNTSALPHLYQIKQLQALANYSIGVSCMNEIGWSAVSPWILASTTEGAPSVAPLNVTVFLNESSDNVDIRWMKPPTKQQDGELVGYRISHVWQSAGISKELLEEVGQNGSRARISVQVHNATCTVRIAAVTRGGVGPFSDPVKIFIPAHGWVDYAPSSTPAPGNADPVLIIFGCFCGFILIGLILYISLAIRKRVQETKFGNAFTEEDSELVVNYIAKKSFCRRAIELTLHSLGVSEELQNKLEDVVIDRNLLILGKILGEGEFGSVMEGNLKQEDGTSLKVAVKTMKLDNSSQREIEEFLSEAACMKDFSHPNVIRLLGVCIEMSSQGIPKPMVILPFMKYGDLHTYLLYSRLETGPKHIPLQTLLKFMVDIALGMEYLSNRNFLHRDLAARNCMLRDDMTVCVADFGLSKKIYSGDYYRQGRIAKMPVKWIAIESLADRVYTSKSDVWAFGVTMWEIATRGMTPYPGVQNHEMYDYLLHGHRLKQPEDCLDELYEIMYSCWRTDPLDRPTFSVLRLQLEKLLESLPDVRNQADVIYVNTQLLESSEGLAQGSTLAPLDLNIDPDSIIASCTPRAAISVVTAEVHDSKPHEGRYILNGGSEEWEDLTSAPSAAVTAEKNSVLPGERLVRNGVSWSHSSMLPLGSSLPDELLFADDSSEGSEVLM
Experiment: DSF 100 kinase selectivity screen;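 also: compound tested at 20 µM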
Assay type: binding
Details: protein MERTK; average of three replicates
Each record is given satisfied if its reported dTm is strictly below 2 K. Records at or above 2 K are given not satisfied.

Decide: dTm of COc1cc(S(C)(=O)=O)ccc1Nc1nc(N(C)C)c2c(Cl)c[nH]c2n1 strictly below 2 K?
satisfied

Please give the result for CCNc1nc(Nc2cc(F)c(C(=O)N3CCOCC3)cc2OC)ncc1C(F)(F)F too.
not satisfied

Please answer likewise for CN[C@@H]1C[C@H]2O[C@@](C)([C@@H]1OC)n1c3ccccc3c3c4c(c5c6ccccc6n2c5c31)C(=O)NC4
not satisfied

Same read-out for O=C(Nc1cccc(-c2c[nH]c3ncnc(N4CCOCC4)c23)c1)C1(C(=O)Nc2ccc(F)c(Br)c2F)CC1 ?
satisfied

Try Cc1ccc(-n2nc(C(C)(C)C)cc2NC(=O)Nc2cccc(-c3c[nH]c4ncnc(N5CCOCC5)c34)c2)cc1 next.
not satisfied

Queued: CC(=O)N1CCN(c2nc(Cl)nc3[nH]cc(-c4cccc(NC(=O)Nc5cc(C(C)(C)C)nn5-c5ccc(C)cc5)c4)c23)CC1
satisfied

// next record O=C(Nc1cccc(-c2c[nH]c3ncnc(N4CCOCC4)c23)c1)C1(C(=O)Nc2ccc(F)c(Br)c2)CC1
not satisfied

Where do the numbers come from? From paper PMC12136037.
